B1: HDV Ribozyme (parent)
chain: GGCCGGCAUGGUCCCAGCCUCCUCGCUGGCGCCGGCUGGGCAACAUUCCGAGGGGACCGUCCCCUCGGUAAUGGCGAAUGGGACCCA

# Variants of: B1
# TEST_DETAILS: self-cleavage, relative activity (ratio to wild type); higher = more cleavage; co-transcriptional
self-cleavage values for the variants below.

Consider the worked cases shown below.
MUTANT_CODE: C19U C21G
self-cleavage: 0.0339
//
MUTANT_CODE: U37A A87U
self-cleavage: 0.325
//
MUTANT_CODE: U23C C62U
self-cleavage: 1.03

Returns the measured self-cleavage for the input variant. Input: U69C A77C
0.612

Could you do the same for C36A U37C , please?
0.489

Another variant to check: U27G G80U
0.224

Next entry: G53C G54C
0.706

Try this variant next: G34U G52C
0.101

Try the variant C18A U79A
0.138

Entry to check: C26G C75G
0.227

Further, for U9A U65A ?
1.05
